tested on: Saccharomyces cerevisiae; assay: protein stability index of tFT-peptide fusion in wild type (PSI (0-1 scale)); higher = more stable (slower turnover); settings: genetic background: wild type
Assign condition met whenever protein stability index does not fall below 0.3; assign condition not met whenever it does.

RVTRLDQIYFRI ... condition met
RSLRVLLPLYLR ... condition not met
ERWRVGLWRGAS ... condition met
LKILRQTMNHQN ... condition not met
LVKYLSCVACIN ... condition not met
CLVSLPILLLFR ... condition not met

* * *

tested on: Saccharomyces cerevisiae; experiment: protein stability index of tFT-peptide fusion (C-terminal peptide) (PSI (0-1 scale)); higher = more stable (slower turnover); conditions: genetic background: cdc53-1; temperature: 37 C
MEASURED METRIC: protein stability index

REGDLLKFKMRP ... 0.727
FLSLVIVLRWFL ... 0.303
GLGLIRTSRLLC ... 0.695
PFPRCRLIFFFM ... 0.727
LWFVIYLLCFFV ... 0.395

Hey, just so you know, these numbers are from the supplement of paper PMC10724198.
